Measured IC50 accompanies every entry in the list below.
Biological target: Recombinant human ULK1 (1-649) (Homo sapiens (Human), UniProt O75385)
Sequence (O75385 1-649): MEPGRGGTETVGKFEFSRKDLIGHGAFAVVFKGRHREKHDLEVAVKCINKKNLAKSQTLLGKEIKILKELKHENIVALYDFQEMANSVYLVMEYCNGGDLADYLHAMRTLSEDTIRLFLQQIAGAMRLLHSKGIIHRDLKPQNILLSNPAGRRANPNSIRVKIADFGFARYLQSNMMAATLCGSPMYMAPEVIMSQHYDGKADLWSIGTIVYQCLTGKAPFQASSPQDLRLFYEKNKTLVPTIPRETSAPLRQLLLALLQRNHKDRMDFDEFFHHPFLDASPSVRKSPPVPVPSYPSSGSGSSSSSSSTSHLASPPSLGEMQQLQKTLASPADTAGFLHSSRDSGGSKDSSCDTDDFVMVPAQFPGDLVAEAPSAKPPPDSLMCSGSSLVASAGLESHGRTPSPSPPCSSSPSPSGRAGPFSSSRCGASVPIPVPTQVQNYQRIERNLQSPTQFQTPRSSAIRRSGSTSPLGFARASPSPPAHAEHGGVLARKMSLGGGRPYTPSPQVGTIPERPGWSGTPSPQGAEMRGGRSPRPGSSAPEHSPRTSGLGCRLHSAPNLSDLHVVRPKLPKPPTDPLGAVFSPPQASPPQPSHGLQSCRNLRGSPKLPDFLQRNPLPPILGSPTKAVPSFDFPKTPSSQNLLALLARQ
Experiment: ULK1 ADP Glo kinase activity assay (MBP substrate)
Settings: 25° C., 40 minutes, read-out: ULK1 biochemical IC50

1. CCc1cc(N2CCN(C)CC2)ccc1Nc1ncc(C(F)(F)F)c(-c2cc(C(N)=O)cs2)n1 :: ≤ 10 nM
2. Cc1nn(C2CN(C)C2)cc1Nc1ncc(C(F)(F)F)c(-c2cc(S(C)(=O)=O)cs2)n1 [Example 120] :: 10 to 50 nM
3. COCCOc1sc(-c2nc(Nc3cc4c(cc3Cl)CNCC4)ncc2C(F)(F)F)cc1S(C)(=O)=O :: ≤ 10 nM
4. O=C1NCCc2sc(-c3nc(Nc4cc5c(cc4Cl)CNC5)ncc3C(F)(F)F)cc21 :: ≤ 10 nM
5. O=C1NCCS(=O)(=O)c2cc(-c3nc(Nc4cc5c(cc4Cl)CN(CC(F)(F)F)CC5)ncc3C(F)(F)F)sc21 :: 100 to 500 nM

Request: What does the record list as IC50 for CSc1cc2c(cc1Nc1ncc(C(F)(F)F)c(-c3cc(S(C)(=O)=O)cs3)n1)CCN(C)C2 ?
Result: ≤ 10 nM

Request: What does the record list as IC50 for CS(=O)(=O)c1cc(-c2nc(Nc3cc4c(cc3Cl)CN(C(=O)C(F)(F)F)CC4)ncc2C(F)(F)F)sc1C1=CCOCC1 ?
Result: > 500 nM

Request: What does the record list as IC50 for CS(=O)(=O)c1csc(-c2nc(Nc3ccc4c(c3)CNCC4)ncc2C(F)(F)F)c1 ?
Result: ≤ 10 nM

Request: What does the record list as IC50 for CN1CCc2cc(Nc3ncc(C(F)(F)F)c(-c4cc(C(N)=O)cs4)n3)c(C3CC3)cc2C1 ?
Result: ≤ 10 nM

Request: What does the record list as IC50 for Cc1cc2c(cc1Nc1ncc(C(F)(F)F)c(-c3cc(S(C)(=O)=O)cs3)n1)CN(C)C2 ?
Result: ≤ 10 nM

Request: What does the record list as IC50 for O=S1(=O)CCNCc2sc(-c3nc(Nc4cc5c(cc4Cl)CN(C4CC4)CC5)ncc3C(F)(F)F)cc21 ?
Result: ≤ 10 nM

====

Biological target: Recombinant human ULK1 (1-649) (Homo sapiens (Human), UniProt O75385)
Experiment: ULK1 ADP Glo kinase activity assay (MBP substrate)
Conditions: 25° C., 40 minutes, read-out: ULK1 biochemical IC50
READOUT_KIND: IC50

In the examples that follow, each entry is paired with its recorded IC50.
1) CS(=O)(=O)c1csc(-c2nc(Nc3cc4c(cc3Cl)CNC4)ncc2C(F)(F)F)c1 [Example 73] :: ≤ 10 nM
2) CN1CCc2cc(Nc3ncc(C(F)(F)F)c(-c4cc5c(s4)C(=O)NCCS5(=O)=O)n3)c(Cl)cc2C1 [Example 86] :: ≤ 10 nM
3) CP(C)(=O)c1csc(-c2nc(Nc3cc4c(cc3Cl)CNCC4)ncc2C(F)(F)F)c1 [Example 38] :: 10 to 50 nM
4) CN1Cc2cc(Cl)c(Nc3ncc(C(F)(F)F)c(-c4cc(C(N)=O)cs4)n3)cc2C1 [Example 17] :: ≤ 10 nM
5) O=S1(=O)CCNCc2sc(-c3nc(Nc4cc5c(cc4Cl)CNCC5)ncc3C(F)(F)F)cc21 [Example 64] :: ≤ 10 nM
6) CN1CCc2cc(Nc3ncc(C(F)(F)F)c(-c4cc5c(s4)CN(C)CCS5(=O)=O)n3)c(Cl)cc2C1 [Example 109] :: ≤ 10 nM
7) CS(=O)(=O)c1cc(-c2nc(Nc3cc4c(cc3Cl)CNCC4)ncc2C(F)(F)F)sc1C1CCOCC1 [Example 97] :: ≤ 10 nM
8) O=C1NCCS(=O)(=O)c2cc(-c3nc(Nc4cc5c(cc4Cl)CNCC5)ncc3C(F)(F)F)sc21 [Example 82] :: ≤ 10 nM
9) CS(=O)(=O)c1csc(-c2nc(Nc3cc4c(cc3F)CN(C3CC3)C4)ncc2C(F)(F)F)c1 [Example 114] :: 10 to 50 nM
10) CN(C)C(=O)c1csc(-c2nc(Nc3cc4c(cc3Cl)CNCC4)ncc2C(F)(F)F)c1 [Example 2] :: 10 to 50 nM

Request: What does the record list as IC50 for O=S1(=O)NCCCc2sc(-c3nc(Nc4cc5c(cc4Cl)CNCC5)ncc3C(F)(F)F)cc21 [Example 84] ?
Result: ≤ 10 nM

Request: What does the record list as IC50 for NC(=O)c1csc(-c2nc(Nc3cc4c(cc3Cl)CN(C3CNC3)CC4)ncc2C(F)(F)F)c1 [Example 5] ?
Result: ≤ 10 nM

====

Biological target: Recombinant human ULK1 (1-649) (Homo sapiens (Human))
Test: ULK1 ADP Glo kinase activity assay (MBP substrate)
Settings: 25° C., 40 minutes, read-out: ULK1 biochemical IC50
pIC50: −log10 of the molar value.
Measured pIC50 accompanies every entry in the list below.

In the examples that follow, each entry is paired with its recorded pIC50.
1) Cc1c(S(C)(=O)=O)csc1-c1nc(Nc2cc3c(cc2Cl)CNCC3)ncc1C(F)(F)F :: 6.30 to 7.00
2) CS(=O)(=O)c1cc(-c2nc(Nc3cc4c(cc3Cl)CNCC4)ncc2C(F)(F)F)sc1C1=CCS(=O)(=O)CC1 :: ≥ 8.00
3) Cc1nc(=O)c2cc(-c3nc(Nc4cc5c(cc4Cl)CNCC5)ncc3C(F)(F)F)sc2[nH]1 :: < 6.30
4) O=S1(=O)NCCOc2sc(-c3nc(Nc4cc5c(cc4Cl)CNCC5)ncc3C(F)(F)F)cc21 :: ≥ 8.00
5) CCc1cc2c(cc1Nc1ncc(C(F)(F)F)c(-c3cc(C(N)=O)cs3)n1)CCN(C)C2 :: ≥ 8.00

Request: What does the record list as pIC50 for CN1CCCc2cc(Nc3ncc(C(F)(F)F)c(-c4cc(S(C)(=O)=O)cs4)n3)c(Cl)cc2C1 ?
Result: ≥ 8.00

Request: What does the record list as pIC50 for O=C1NCCS(=O)(=O)c2cc(-c3nc(Nc4cc5c(cc4Cl)CN(C4CC4)CC5)ncc3C(F)(F)F)sc21 ?
Result: 7.30 to 8.00

Request: What does the record list as pIC50 for NC(=O)c1csc(-c2nc(Nc3cc4c(cc3Cl)CNCC4)ncc2C(F)(F)F)c1 ?
Result: ≥ 8.00

Request: What does the record list as pIC50 for CCc1cc(N2CCN(C)CC2)ccc1Nc1ncc(C(F)(F)F)c(-c2cc3c(s2)CCNC3=O)n1 ?
Result: ≥ 8.00

Request: What does the record list as pIC50 for CS(=O)(=O)c1cc(-c2nc(Nc3cc4c(cc3Cl)CNCC4)ncc2C(F)(F)F)sc1N1CCS(=O)(=O)CC1 ?
Result: ≥ 8.00

Request: What does the record list as pIC50 for CN1CCc2cc(Cl)c(Nc3ncc(C(F)(F)F)c(-c4cc5c(s4)CCCNC5=O)n3)cc2C1 ?
Result: ≥ 8.00
